I'd appreciate it if you could supply pIC50 values for the items below.
Target: T1, recombinant human TL1A (human, UniProt O95150 71-251)
T1 construct: homotrimer; biotinylated for SPR capture; the ELISA paragraphs say only 'recombinant TL1A'; also called TNFSF15
T1 chain: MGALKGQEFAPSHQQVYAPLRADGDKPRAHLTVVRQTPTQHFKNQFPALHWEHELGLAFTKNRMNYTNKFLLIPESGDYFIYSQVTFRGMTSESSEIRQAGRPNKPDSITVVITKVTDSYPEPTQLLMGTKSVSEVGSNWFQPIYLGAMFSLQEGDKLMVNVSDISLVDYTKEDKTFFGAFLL
Assay: competition ELISA vs bio-TL1A-0002
// pIC50 here means minus log10 of the molar concentration (mol/L)

Query TL1A-0095 (antibody, IgG1, V domains shown, IgG1/kappa variant of TL1A-0002) VH: QVQLVQSGAEVKKPGASVKVSCKASGYDFTYYGISWVRQAPGQGLEWMGWISTYNGNTHYARMLQGRVTMTTDTSTRTAYMELRSLRSDDTAVYYCARETYYGSGAYRGGMDVWGQGTTVTVSS VL: EIVLTQSPATLSLSPGERATLSCRASQSVSSYLAWYQQKPGQAPRLLIYDASNRATGIPARFSGSGSGTDFTLTISSLEPEDFAVYYCQQRSNWPWTFGQGTKVEIKR yields pIC50 of 8.06

Query TL1A-0028 (antibody, IgG1, V domains shown, IgG1/kappa variant of TL1A-0002) VH: QVQLVQSGAEVKKPGASVKVSCKASGYDFTYYGISWVRQAPGQGLEWMGWISTYNGNTHYARMLQGRVTMTTDTSTRTAYMELRSLRSDDTAVYYCARENYWGSGAYRGGMDVWGQGTTVTVSS VL: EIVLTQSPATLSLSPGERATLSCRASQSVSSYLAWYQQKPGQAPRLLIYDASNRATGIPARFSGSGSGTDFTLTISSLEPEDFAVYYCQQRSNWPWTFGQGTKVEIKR yields pIC50 of 8.27

Query TL1A-0071 (antibody, IgG1, V domains shown, IgG1/kappa variant of TL1A-0002) VH: QVQLVQSGAEVKKPGASVKVSCKASGYDFTYYGVSWVRQAPGQGLEWMGWISTYNGNTHYARMLQGRVTMTTDTSTRTAYMELRSLRSDDTAVYYCARENYYGSGAYRGGMDVWGQGTTVTVSS VL: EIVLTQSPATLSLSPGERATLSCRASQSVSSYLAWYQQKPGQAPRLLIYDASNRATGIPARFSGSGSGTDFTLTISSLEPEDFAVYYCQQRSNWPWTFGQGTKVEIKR yields pIC50 of 8.41
